Reference source: paper PMC11012124

Test system: OVCAR-8
Assay explanation: cells
Measurement context: Homo sapiens, OVCAR-8, 48 h, read-out: LC50
Labelling: CC50 reported below 30 µM becomes y; at or above becomes n.

Request: Item CN(C)c1nc(NCCNS(=O)(=O)c2ccc(C(=O)/C=C/c3ccc(Cl)cc3)cc2)nc(N2CCOCC2)n1 [23e] : CC50 beneath 30 µM, strictly?
Result: n

Request: Item COc1cc(/C=C/C(=O)c2ccc(S(=O)(=O)NCCNc3nc(Nc4ccc(F)cc4)nc(N(C)C)n3)cc2)cc(OC)c1OC [24d] : CC50 beneath 30 µM, strictly?
Result: n

Request: Item Nc1nc(N)c2c(n1)NC(c1ccc(Cl)cc1)CC(c1ccc(Nc3nc(NCCO)nc(Nc4ccc(Cl)cc4)n3)cc1)=N2 (stereo not shown) [33e] : CC50 beneath 30 µM, strictly?
Result: y

Request: Item CN(C)c1nc(NCCNS(=O)(=O)c2ccc(C3=Nc4c(N)nc(N)nc4NC(c4ccccc4)C3)cc2)nc(Nc2ccc(F)cc2)n1 (stereo not shown) [31a] : CC50 beneath 30 µM, strictly?
Result: n

Request: Item Cc1ccc(C2CC(c3ccc(Nc4nc(NCCO)nc(Nc5ccc(Cl)cc5)n4)cc3)=Nc3c(N)nc(N)nc3N2)cc1 (stereo not shown) [33b] : CC50 beneath 30 µM, strictly?
Result: y

Request: Item CN(C)c1nc(NCCNS(=O)(=O)c2ccc(C(=O)/C=C/c3ccc(Cl)cc3)cc2)nc(Nc2ccc(F)cc2)n1 [24e] : CC50 beneath 30 µM, strictly?
Result: y

Request: Item Nc1nc(N)c2c(n1)NC(c1ccc(C(F)(F)F)cc1)CC(c1ccc(Nc3nc(NCCO)nc(Nc4ccc(Cl)cc4)n3)cc1)=N2 (stereo not shown) [33g] : CC50 beneath 30 µM, strictly?
Result: y

Request: Item CN(C)c1nc(NCCNS(=O)(=O)c2ccc(C(=O)/C=C/c3ccccc3)cc2)nc(Nc2ccc(F)cc2)n1 [24a] : CC50 beneath 30 µM, strictly?
Result: n

Request: Item COc1cc(/C=C/C(=O)c2cc(OC)c(OC)c(OC)c2)ccc1Oc1nc(Nc2ccc(F)cc2)nc(N(C)C)n1 [21d] : CC50 beneath 30 µM, strictly?
Result: n

* * *

Test system: MALME-3M
Assay explanation: cells
Measurement context: Homo sapiens, 48 h, read-out: LC50
Labelling: CC50 reported below 50 µM becomes True; at or above becomes False.

Observe how each entry below is paired with its result.
CN(C)c1nc(NCCNS(=O)(=O)c2ccc(C3=Nc4c(N)nc(N)nc4NC(c4ccc(C(F)(F)F)cc4)C3)cc2)nc(N2CCOCC2)n1 (stereo not drawn) [30g]	False
CN(C)c1nc(NCCNS(=O)(=O)c2ccc(C3=Nc4c(N)nc(N)nc4NC(c4ccccc4)C3)cc2)nc(Nc2ccc(F)cc2)n1 (stereo not drawn) [31a]	False
COc1cc(/C=C/C(=O)c2ccccc2)ccc1Oc1nc(Nc2ccc(F)cc2)nc(N(C)C)n1 [21a]	False
CN(C)c1nc(NCCNS(=O)(=O)c2ccc(C3=Nc4c(N)nc(N)nc4NC(c4ccc(F)cc4)C3)cc2)nc(Nc2ccc(F)cc2)n1 (stereo not drawn) [31f]	False
CN(C)c1nc(NCCNS(=O)(=O)c2ccc(C(=O)/C=C/c3ccc(C(F)(F)F)cc3)cc2)nc(N2CCOCC2)n1 [23g]	False

Request: Item COc1cc(C2CC(c3ccc(Cl)cc3)=Nc3c(N)nc(N)nc3N2)ccc1Oc1nc(Nc2ccc(F)cc2)nc(N(C)C)n1 (stereo not drawn) [29e] : CC50 beneath 50 µM, strictly?
Result: False

* * *

Consider the following molecules and their measured GI50 readings.
Test system: RPMI-8226
Assay explanation: cells
Measurement context: Homo sapiens, RPMI-8226, 48 h
Please state the figure in µM; there is no need to write the unit.

Request: So what's the measured GI50 for this one? CN(C)c1nc(NCCNS(=O)(=O)c2ccc(C(=O)/C=C/c3ccc(C(F)(F)F)cc3)cc2)nc(Nc2ccc(F)cc2)n1 [24g]
Result: 3

Request: So what's the measured GI50 for this one? Nc1nc(N)c2c(n1)NC(c1ccc(C(F)(F)F)cc1)CC(c1ccc(Nc3nc(NCCO)nc(Nc4ccc(Cl)cc4)n3)cc1)=N2 (stereo not drawn) [33g]
Result: 1.51

Request: So what's the measured GI50 for this one? Cc1ccc(C2CC(c3ccc(S(=O)(=O)NCCNc4nc(Nc5ccc(F)cc5)nc(N(C)C)n4)cc3)=Nc3c(N)nc(N)nc3N2)cc1 (stereo not drawn) [31b]
Result: 2.94

* * *

Consider the following compounds and their measured GI50 readings.
Test system: LOX IMVI
Assay explanation: cells
Measurement context: Homo sapiens, 48 h

Consider the following illustrative entries.
COc1cc(/C=C/C(=O)c2cc(OC)c(OC)c(OC)c2)ccc1Oc1nc(NCCO)nc(N2CCOCC2)n1 [20d]	642 nM
COc1cc(/C=C/C(=O)c2ccc(C)cc2)ccc1Oc1nc(Nc2ccc(F)cc2)nc(N(C)C)n1 [21b]	1840 nM

Request: So what's the measured GI50 for this one? COc1ccc(/C=C/C(=O)c2ccc(S(=O)(=O)NCCNc3nc(Nc4ccc(F)cc4)nc(N(C)C)n3)cc2)cc1 [24c]
Result: 3230 nM

Request: So what's the measured GI50 for this one? COc1cc(/C=C/C(=O)c2cc(OC)c(OC)c(OC)c2)ccc1Oc1nc(Nc2ccc(F)cc2)nc(N(C)C)n1 [21d]
Result: 478 nM

Request: So what's the measured GI50 for this one? COc1cc(C2CC(c3ccc(Cl)cc3)=Nc3c(N)nc(N)nc3N2)ccc1Oc1nc(Nc2ccc(F)cc2)nc(N(C)C)n1 (centres unmarked) [29e]
Result: 47800 nM

Request: So what's the measured GI50 for this one? CN(C)c1nc(NCCNS(=O)(=O)c2ccc(C3=Nc4c(N)nc(N)nc4NC(c4ccc(F)cc4)C3)cc2)nc(Nc2ccc(F)cc2)n1 (centres unmarked) [31f]
Result: 2620 nM

Request: So what's the measured GI50 for this one? CN(C)c1nc(NCCNS(=O)(=O)c2ccc(C3=Nc4c(N)nc(N)nc4NC(c4ccc(C(F)(F)F)cc4)C3)cc2)nc(N2CCOCC2)n1 (centres unmarked) [30g]
Result: 17100 nM

Request: So what's the measured GI50 for this one? CN(C)c1nc(NCCNS(=O)(=O)c2ccc(C3=Nc4c(N)nc(N)nc4NC(c4ccc(C(F)(F)F)cc4)C3)cc2)nc(Nc2ccc(F)cc2)n1 (centres unmarked) [31g]
Result: 3140 nM

* * *

Tested on: SF-539
Assay explanation: cells
Measurement context: Homo sapiens, SF-539, 48 h
Consider the following compounds and their measured GI50 readings.
Please state the figure in µM; there is no need to write the unit.

Consider the following illustrative entries.
CN(C)c1nc(NCCNS(=O)(=O)c2ccc(C(=O)/C=C/c3ccc(F)cc3)cc2)nc(Nc2ccc(F)cc2)n1 [24f]	2.52
CN(C)c1nc(NCCNS(=O)(=O)c2ccc(C(=O)/C=C/c3ccccc3)cc2)nc(Nc2ccc(F)cc2)n1 [24a]	12

Request: Param readout= GI50; system= SF-539; entry= Nc1nc(N)c2c(n1)NC(c1ccc(C(F)(F)F)cc1)CC(c1ccc(Nc3nc(NCCO)nc(Nc4ccc(Cl)cc4)n3)cc1)=N2 (stereo not shown) [33g] ; returns value.
Result: 1.56

Request: Param readout= GI50; system= SF-539; entry= CN(C)c1nc(NCCNS(=O)(=O)c2ccc(C(=O)/C=C/c3ccc(F)cc3)cc2)nc(N2CCOCC2)n1 [23f] ; returns value.
Result: 13.2

* * *

Test system: A549/ATCC
Assay explanation: cells
Measurement context: Homo sapiens, A549, 48 h
Labelling: GI50 reported below 7 µM becomes condition met; at or above becomes condition not met.

Nc1nc(N)c2c(n1)NC(c1ccc(F)cc1)CC(c1ccc(Nc3nc(NCCO)nc(Nc4ccc(Cl)cc4)n3)cc1)=N2 (stereo not drawn) [33f]	condition met
Cc1ccc(C2CC(c3ccc(Nc4nc(NCCO)nc(Nc5ccc(Cl)cc5)n4)cc3)=Nc3c(N)nc(N)nc3N2)cc1 (stereo not drawn) [33b]	condition met
Cc1ccc(C2CC(c3ccc(S(=O)(=O)NCCNc4nc(Nc5ccc(F)cc5)nc(N(C)C)n4)cc3)=Nc3c(N)nc(N)nc3N2)cc1 (stereo not drawn) [31b]	condition not met

Request: Item CN(C)c1nc(NCCNS(=O)(=O)c2ccc(C3=Nc4c(N)nc(N)nc4NC(c4ccc(Cl)cc4)C3)cc2)nc(Nc2ccc(F)cc2)n1 (stereo not drawn) [31e] : GI50 beneath 7 µM, strictly?
Result: condition not met

Request: Item CN(C)c1nc(NCCNS(=O)(=O)c2ccc(C(=O)/C=C/c3ccccc3)cc2)nc(Nc2ccc(F)cc2)n1 [24a] : GI50 beneath 7 µM, strictly?
Result: condition not met
